Target: AFF186 (Caldanaerobacter subterraneus, UniProt Q8RD41, C137S/D254S/INS221C/L167D)
Assay: Equilibrium fluorescence
Assay type: binding
measure: Kd
# answer = value followed by unit

Query :: Return Kd measured with AFF186 (Caldanaerobacter subterraneus, UniProt Q8RD41, C137S/D254S/INS221C/L167D) given this compound: OC1OC[C@@H](O)[C@@H](O)[C@H]1O (stereo partly shown)
Result :: 12.3 µM

====

Biological target: N′210 (Caldanaerobacter subterraneus, UniProt Q8RD41, C137S/L167D)
Settings: SD, n = 3
measure: Kd (nM)
Dear colleague, please return just the value in nM, with no unit written.

Query :: Request the reported Kd associated with OC1OC[C@@H](O)[C@@H](O)[C@H]1O (stereo partly shown)
Result :: 21.6

====

Target: AFF210 (Caldanaerobacter subterraneus, UniProt Q8RD41, C137S/D254S/INS245C/L167D)
Test: Equilibrium fluorescence
Type: binding
measure: Kd (µM)
Value expressed in µM; do not type the unit.

Query :: Please tell me: Kd of OC1OC[C@@H](O)[C@@H](O)[C@H]1O (stereo partly shown) , system AFF210 (Caldanaerobacter subterraneus, UniProt Q8RD41, C137S/D254S/INS245C/L167D)?
Result :: 4.2

====

Biological target: AFF186 (Caldanaerobacter subterraneus, UniProt Q8RD41, C137S/D254S/INS221C/L167D)
Format: binding
Conditions: SD, n = 3
measure: Kd (nM)
# output: bare number, implied unit nM

Query :: Fill blank: measured Kd of the molecule OC1OC[C@@H](O)[C@@H](O)[C@H]1O (stereo partly drawn) [ribose, D-ribose] is ____.
Result :: 58.8

====

Molecular target: N′60 (Caldanaerobacter subterraneus, UniProt Q8RD41, C137S/L167D)
Conditions: SD, n = 3
measure: pKd
The meaning of pKd here: minus log10 of the concentration in molar units.

Query :: # input compound: OC1OC[C@@H](O)[C@@H](O)[C@H]1O (stereo partly drawn) [ribose, D-ribose] ; wanted: its pKd
Result :: 7.67

====

Biological target: N′70 (Caldanaerobacter subterraneus, UniProt Q8RD41, C137S/L167D)
Details: SD, n = 3
measure: Kd (µM)
Answer format: numeric, µM implied, no suffix.

Query :: Give the measured Kd of OC1OC[C@@H](O)[C@@H](O)[C@H]1O (stereo partly shown) .
Result :: 2.74

The reported measurements were obtained from paper PMC5966831.
